# TARGET UNDER TEST: T1, human CD8 alpha (CD8A) on primary human CD8+ T cells (human, UniProt P01732 22-235)
# T1 construct: whole, on cells; also called hCD8A
# T1 sequence (P01732 22-235): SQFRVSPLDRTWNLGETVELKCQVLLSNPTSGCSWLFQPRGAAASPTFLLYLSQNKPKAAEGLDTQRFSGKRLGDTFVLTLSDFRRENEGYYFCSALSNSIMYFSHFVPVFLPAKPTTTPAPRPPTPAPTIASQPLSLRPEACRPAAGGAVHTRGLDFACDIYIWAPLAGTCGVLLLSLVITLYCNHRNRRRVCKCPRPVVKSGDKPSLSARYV
# TEST METHOD NOTES: flow cytometry, human CD8+ T cells, 2 uM FN3
RESULT TYPE: Human T-cell Binding 2 uM (MFI)

(1) P283AR9P1362_D7 (designed binder, FN3 domain) LPAPKNLVVSRVTEDSARLSWVKRATSFDSFLIQYQESEKVGEAIVLTVPGSERSYDLTGLKPGTEYTVSIYGVDVKYDIDSRPISSNPLSAIFTT
(2) P282BR9P1357_D2 (designed binder, FN3 domain) LPAPKNLVVSRVTEDSARLSWIKDGHPRHFDSFLIQYQESEKVGEAIVLTVPGSERSYDLTGLKPGTEYTVSIYGVDVVYDRGQLISSNPLSAIFTT
input: Lower value for measured Human T-cell Binding 2 uM (MFI)? Options: 1 , 2 Kindly state the label of the option you pick.
output: 2
